# assayed_system: T1, monkey (Macaca fascicularis) NPR1 on HEK293/mfNPR1 cells (monkey (Macaca fascicularis))
# T1 construct: whole, on cells; No ligand added
# assay_comment: ECL cell-binding immunoassay (MSD), HEK293/mfNPR1, no ligand added
pEC50: −log10 of the molar value.
Parameter: pEC50. Scope: all listed entries.
endpoint: pEC50

1. REGN7548 (antibody, human IgG4 S228P, kappa, V domains shown, also called mAb38090) VH: QVQLVQSGAEVKKPGASVKVSCKASGYTFTSYYIHWVRQAPGQGLEWMGIISPSDGYTSYAQNFQGRVTMTRDTSTNTVYMDLSSLRSEDTAMFYCARNDPLTTVALDYWGQGTLVTVSS VL: AIQMTQSPSSLSASVGDRVTITCRASQGIRYDLGWFQQKPGKAPKLLIHAASSLQSGVPSRFSGSGSGTDFTLTISSLQPEDFATYYCLQDYNYPFTFGQGTKLEIKR    9.25
2. REGN7544 (antibody, human IgG4 S228P, kappa, V domains shown, also called mAb38072) VH: EVQLVESGGGLVQPGGSLRLSCAASGFSFVSYVMGWVRQAPGKGLEWVSSISGSLTNTYYADPVKGRFTISRDNSKNTLYLQMNSLRAEDTAAYYCVTYDILTGHLFDYWGQGTLVTVSS VL: AIQMTQSPSSLSASVGDRVTITCRSSQGIRNDFGWYQQKPGKAPKLLIYAASRLQSGVPSRFSGSGSGTDFTLTINNLQPEDFATYYCLQDYTYPFTFGPGTKVDIKR    8.77
3. H4H22034 (antibody, human IgG4 S228P, kappa, V domains shown, also called H4H22034N; mAb22034) VH: EVQLLESGGDLVQPGGSLRLSCAASGFTFSDYAMIWVRQTPGKGLEWVSGISGGGGSTDYADSVKGRFTTSRDNVKNAMYLQMNSLRTEDTAVYYCAREDQLPSYHNYYGMDVWGQGTTVTVSS VL: DIQMTQSPSSVSASVGDRVTITCRASQGINNYLAWFQQKPGKAPKSLIYGASSLQSGVPSKFSGSRSGIDFTLTISSLQPEDFATYYCQQYNSYPYTFGQGTKLEIKR    9.48
4. REGN7541 (antibody, human IgG4 S228P, kappa, V domains shown, also called mAb38067) VH: EVQLVESGGGLVQPGGSLRLSCAASGFTFSSYAMSWVRQAPGKGLEWVSTISGSGTNTYYADSVKGRFTISNDNSKNTLYLQMNSLRAEDTAVYYCANYDILTGHSFEYWGQGTLVTVSS VL: AIQMTQSPSSLSASVGDRVTITCRASQGIRNDLGWYQQKPGKAPELLIYAASRLPSGVPLRFSGSGSGTDFTLTISSLQPEDVATYYCLQDYNYPFTFGPGTKVDIKR    8.85
